- EXPERIMENTAL SYSTEM: KinA/Spo0F (sporulation kinase A/sporulation initiation phosphotransferase F) (Bacillus subtilis (strain 168), UniProt P06628+P16497)
- ASSAY NAME: Ability to inhibit autophosphorylation of KinA/Sp0F assay
- Assay type: protein assay
QUANTITY NAME: IC50 (µM)

                                   compound  quantity_name  value
0  O=C(Nc1ccc(Cl)c(Cl)c1)c1cc(Cl)cc(Cl)c1O [3,3',4',5-TETRACHLOROSALICYLANILIDE]           IC50     37
1  Oc1c(Br)cc(Br)cc1-c1n[nH]c(-c2ccc(Cl)c(Cl)c2)n1           IC50     24
2  NS(=O)(=O)c1ccc(O)c(-c2n[nH]c(-c3ccc(Cl)c(Cl)c3)n2)c1           IC50     91

(P) Oc1c(Cl)cc(Cl)cc1-c1n[nH]c(-c2ccc(Cl)c(Cl)c2)n1
(Q) Oc1c(Br)cc(Br)cc1-c1n[nH]c(-c2ccc(Oc3ccccc3)cc2)n1
Min IC50? P | Q Indicate which entry you chose by stating its label.
P
(P: 67 µM, Q: 100 µM)
